# EXPERIMENTAL_SYSTEM: CYP1A2 (Homo sapiens)
# Sequence (P05177 whole entry): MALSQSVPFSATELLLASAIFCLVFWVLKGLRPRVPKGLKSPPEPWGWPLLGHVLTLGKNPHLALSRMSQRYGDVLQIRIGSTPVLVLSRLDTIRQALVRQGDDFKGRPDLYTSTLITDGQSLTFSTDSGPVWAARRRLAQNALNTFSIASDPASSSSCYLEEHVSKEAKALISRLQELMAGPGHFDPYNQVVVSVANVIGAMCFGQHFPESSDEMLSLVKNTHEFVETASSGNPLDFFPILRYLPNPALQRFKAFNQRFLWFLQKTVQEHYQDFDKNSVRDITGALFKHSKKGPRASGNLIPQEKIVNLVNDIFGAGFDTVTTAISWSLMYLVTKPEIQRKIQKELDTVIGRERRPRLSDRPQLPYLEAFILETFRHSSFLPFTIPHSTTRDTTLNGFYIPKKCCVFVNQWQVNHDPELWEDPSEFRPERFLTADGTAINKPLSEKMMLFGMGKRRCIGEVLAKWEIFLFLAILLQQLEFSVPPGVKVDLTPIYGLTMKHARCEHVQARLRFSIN
# ASSAY_INFO: Inhibition of human CYP1A2 assessed as ratio of IC50 in absence of NADPH to IC50 for presence of NADPH using ethoxyresorufin as substrate after 30 mins
# CONDITION_DETAILS: probe ethoxyresorufin
PROPERTY_NAME: IC50 shift at 0.5 h

Consider the reported IC50 shift at 0.5 h for these compounds:
>>> result("CC(c1cc2ccccc2s1)N(O)C(N)=O (stereo not given)")
"> 5"
>>> result("CC(COc1ccccc1)N(CCCl)Cc1ccccc1 (stereo not given)")
2

Item `CC1(C)[C@@H](O)CC[C@]2(C)[C@H]3C(=O)C=C4[C@@H]5C[C@@](C)(C(=O)O)CC[C@]5(C)CC[C@@]4(C)[C@]3(C)CC[C@@H]12` has what recorded IC50 shift at 0.5 h?
2

Can you check `COCCCC/C(=N\OCCN)c1ccc(C(F)(F)F)cc1` next?
< 2

And the next one, `CC1=C(/C=C/C(C)=C/C=C/C(C)=C/C(=O)O)C(C)(C)CCC1` ?
< 2

Attribution: ChEMBL document CHEMBL2069259
